- target_entity: CREB-binding protein/Histone acetyltransferase p300 (Homo sapiens, UniProt Q09472+Q92793)
- Sequence (Q09472 whole entry, looked up): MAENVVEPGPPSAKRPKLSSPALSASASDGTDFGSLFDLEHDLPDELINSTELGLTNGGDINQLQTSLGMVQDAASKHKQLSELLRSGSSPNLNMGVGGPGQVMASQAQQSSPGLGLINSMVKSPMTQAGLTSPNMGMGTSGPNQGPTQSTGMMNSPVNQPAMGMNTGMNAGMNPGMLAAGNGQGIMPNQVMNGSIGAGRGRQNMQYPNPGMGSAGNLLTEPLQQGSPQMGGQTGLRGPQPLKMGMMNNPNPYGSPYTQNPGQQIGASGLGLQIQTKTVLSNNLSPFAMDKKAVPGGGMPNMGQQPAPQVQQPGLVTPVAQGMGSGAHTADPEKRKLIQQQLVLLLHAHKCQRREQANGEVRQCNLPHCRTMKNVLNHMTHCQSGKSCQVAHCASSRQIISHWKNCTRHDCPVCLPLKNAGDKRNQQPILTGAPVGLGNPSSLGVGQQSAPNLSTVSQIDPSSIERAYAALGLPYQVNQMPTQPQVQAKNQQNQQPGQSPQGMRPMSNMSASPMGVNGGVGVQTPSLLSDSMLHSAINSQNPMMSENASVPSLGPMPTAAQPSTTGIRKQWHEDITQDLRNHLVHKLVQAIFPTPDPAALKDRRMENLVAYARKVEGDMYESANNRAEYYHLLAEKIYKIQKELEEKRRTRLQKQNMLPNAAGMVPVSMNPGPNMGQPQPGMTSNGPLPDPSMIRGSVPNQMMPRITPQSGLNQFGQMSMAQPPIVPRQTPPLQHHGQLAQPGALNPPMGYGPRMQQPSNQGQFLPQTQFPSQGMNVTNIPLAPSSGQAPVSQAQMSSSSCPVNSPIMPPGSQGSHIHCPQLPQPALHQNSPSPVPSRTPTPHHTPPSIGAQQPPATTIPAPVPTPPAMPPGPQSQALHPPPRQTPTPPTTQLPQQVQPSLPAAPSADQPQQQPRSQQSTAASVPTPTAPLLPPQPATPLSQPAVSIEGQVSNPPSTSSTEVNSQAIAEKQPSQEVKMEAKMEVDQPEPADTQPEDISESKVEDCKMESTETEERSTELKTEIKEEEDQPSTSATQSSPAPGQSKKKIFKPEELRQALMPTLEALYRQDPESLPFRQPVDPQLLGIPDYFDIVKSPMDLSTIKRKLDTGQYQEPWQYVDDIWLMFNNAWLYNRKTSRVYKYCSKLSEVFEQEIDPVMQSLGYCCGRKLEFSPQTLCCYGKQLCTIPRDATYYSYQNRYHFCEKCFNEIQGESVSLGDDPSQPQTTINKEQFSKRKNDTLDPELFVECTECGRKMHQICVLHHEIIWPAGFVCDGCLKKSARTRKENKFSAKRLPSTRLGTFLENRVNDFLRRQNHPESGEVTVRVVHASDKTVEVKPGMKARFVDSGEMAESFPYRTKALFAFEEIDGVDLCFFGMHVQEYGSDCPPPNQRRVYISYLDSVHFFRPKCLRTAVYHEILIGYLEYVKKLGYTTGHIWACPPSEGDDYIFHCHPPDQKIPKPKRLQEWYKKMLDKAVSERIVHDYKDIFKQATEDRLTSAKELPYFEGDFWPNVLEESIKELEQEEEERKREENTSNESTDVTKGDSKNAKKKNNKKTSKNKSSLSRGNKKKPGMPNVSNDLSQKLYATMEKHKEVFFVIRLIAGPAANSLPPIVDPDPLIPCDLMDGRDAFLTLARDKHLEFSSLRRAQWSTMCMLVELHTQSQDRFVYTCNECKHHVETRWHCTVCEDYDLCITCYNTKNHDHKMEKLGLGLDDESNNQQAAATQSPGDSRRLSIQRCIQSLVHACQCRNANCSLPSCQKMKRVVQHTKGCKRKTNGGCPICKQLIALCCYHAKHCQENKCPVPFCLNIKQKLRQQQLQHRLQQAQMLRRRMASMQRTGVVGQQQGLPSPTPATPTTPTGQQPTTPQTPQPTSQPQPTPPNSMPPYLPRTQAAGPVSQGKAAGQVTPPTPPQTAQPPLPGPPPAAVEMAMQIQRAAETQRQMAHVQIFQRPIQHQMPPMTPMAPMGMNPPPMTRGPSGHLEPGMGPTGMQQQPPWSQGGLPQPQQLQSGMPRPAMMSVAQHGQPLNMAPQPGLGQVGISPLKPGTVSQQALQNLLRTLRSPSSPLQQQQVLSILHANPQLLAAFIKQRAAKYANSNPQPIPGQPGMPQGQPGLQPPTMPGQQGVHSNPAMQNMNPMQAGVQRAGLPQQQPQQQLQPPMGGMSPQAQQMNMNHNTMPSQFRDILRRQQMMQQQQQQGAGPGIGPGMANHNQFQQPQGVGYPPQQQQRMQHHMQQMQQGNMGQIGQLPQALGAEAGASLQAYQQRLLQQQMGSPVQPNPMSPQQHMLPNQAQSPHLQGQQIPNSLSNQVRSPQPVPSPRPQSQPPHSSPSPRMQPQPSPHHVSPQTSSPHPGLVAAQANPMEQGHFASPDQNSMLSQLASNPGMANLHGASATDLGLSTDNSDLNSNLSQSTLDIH
- Sequence (Q92793 whole entry, looked up): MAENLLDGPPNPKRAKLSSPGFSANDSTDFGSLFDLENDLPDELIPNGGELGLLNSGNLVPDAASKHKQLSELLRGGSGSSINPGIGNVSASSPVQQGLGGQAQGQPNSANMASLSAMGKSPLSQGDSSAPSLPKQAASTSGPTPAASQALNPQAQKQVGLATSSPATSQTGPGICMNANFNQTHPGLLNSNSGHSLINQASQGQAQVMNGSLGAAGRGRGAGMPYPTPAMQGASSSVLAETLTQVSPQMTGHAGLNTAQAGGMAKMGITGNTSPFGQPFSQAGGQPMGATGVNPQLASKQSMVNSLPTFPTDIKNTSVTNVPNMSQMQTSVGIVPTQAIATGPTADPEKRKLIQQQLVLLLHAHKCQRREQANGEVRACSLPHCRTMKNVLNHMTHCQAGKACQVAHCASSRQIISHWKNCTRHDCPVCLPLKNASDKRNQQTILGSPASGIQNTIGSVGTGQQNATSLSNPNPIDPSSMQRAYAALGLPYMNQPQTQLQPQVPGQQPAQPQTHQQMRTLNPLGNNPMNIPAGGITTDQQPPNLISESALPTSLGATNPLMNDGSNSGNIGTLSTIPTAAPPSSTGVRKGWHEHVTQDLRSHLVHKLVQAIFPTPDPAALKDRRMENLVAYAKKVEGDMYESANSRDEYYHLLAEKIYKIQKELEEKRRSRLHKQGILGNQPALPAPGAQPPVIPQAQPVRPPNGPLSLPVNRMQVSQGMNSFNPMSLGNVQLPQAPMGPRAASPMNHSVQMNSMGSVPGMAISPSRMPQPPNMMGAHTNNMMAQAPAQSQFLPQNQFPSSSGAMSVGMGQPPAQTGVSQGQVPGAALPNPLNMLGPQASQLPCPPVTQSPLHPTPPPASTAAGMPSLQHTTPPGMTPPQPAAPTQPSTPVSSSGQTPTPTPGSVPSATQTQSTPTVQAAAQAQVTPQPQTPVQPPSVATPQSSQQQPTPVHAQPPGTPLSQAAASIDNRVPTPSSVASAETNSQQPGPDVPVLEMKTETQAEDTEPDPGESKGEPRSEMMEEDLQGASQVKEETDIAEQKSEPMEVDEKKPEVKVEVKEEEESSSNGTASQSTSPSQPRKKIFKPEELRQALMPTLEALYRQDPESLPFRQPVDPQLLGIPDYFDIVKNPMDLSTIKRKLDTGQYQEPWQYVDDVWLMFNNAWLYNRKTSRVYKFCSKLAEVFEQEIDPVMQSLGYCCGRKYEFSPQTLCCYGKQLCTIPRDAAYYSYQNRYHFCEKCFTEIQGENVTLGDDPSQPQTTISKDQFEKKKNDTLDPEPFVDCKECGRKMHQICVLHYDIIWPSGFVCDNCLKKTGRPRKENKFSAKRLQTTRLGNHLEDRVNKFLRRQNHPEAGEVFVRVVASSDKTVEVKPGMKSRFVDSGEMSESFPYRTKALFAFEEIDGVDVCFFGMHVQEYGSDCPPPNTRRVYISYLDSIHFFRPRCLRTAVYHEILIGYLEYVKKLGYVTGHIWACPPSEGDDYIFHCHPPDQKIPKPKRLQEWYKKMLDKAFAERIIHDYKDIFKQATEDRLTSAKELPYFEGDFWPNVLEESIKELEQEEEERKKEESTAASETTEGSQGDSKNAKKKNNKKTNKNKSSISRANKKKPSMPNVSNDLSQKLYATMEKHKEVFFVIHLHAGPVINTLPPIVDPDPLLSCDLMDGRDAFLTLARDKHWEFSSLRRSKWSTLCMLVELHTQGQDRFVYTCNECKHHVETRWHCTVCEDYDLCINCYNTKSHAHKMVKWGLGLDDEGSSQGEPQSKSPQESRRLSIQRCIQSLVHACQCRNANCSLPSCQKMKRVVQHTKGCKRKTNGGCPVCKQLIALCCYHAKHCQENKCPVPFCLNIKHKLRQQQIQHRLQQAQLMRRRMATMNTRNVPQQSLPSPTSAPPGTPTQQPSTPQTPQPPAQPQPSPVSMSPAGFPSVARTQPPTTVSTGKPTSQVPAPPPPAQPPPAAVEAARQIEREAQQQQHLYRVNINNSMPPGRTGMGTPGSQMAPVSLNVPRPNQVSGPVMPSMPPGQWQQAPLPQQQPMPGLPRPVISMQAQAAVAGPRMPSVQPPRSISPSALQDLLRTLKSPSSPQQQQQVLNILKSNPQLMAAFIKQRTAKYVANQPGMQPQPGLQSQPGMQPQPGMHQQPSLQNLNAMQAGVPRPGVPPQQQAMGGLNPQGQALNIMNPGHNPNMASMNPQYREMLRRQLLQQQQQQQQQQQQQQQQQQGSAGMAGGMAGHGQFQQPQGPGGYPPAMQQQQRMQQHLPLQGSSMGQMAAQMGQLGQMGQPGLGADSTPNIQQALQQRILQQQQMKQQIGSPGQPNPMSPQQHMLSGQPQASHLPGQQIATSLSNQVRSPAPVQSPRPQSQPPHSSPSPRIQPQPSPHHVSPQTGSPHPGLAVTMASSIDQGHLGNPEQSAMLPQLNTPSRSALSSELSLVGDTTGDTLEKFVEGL
- procedure_text: Inhibition of human CBP/P300 expressed in Escherichia coli BL21(DE3)-R3 assessed as change in melting temperature at 10 uM by SYPRO orange dye-based differential scanning fluorimetry
Measured ΔTm values are reported for all entries that follow.
Give the quantity in °C, number only.

Record excerpt, results attached:
COc1cccc(-c2cc3c(c(OCCCN(C)C)c2)OCCN(C(=O)C2CC2)C3)c1 :: 5
CCS(=O)(=O)Nc1cc(-c2cc3c(c(OC)c2)OCCN(C(=O)C2CC2)C3)ccc1C :: 4.6

Req: Which measured ΔTm value corresponds to COc1cccc(-c2cc3c(c(OCC4CCCN(C)C4)c2)OCCN(C(=O)C2CC2)C3)c1 (stereo not given) ?
Resp: 6
